These measurements were taken from patent US20140066410A1.

target: PCAF (Homo sapiens); assay: Bromodomain binding affinity (tryptophan fluorescence binding assay); conditions: Table 1; read-out: Binding Affinity, Kd PCAF
Sequence (Q92831 723-827 limits assumed): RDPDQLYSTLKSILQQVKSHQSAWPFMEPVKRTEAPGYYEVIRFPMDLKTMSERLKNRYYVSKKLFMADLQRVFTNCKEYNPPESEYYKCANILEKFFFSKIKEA

[
  {
    "test_smiles": "Cc1cc(/C=C/c2ccc(S(=O)(=O)Nc3ccccn3)cc2)cc(C)c1O",
    "Kd": "< 1000 nM"
  }
]

* * *

Property: pKd; scope: individual compounds
Biological target: BRD4-1 (Homo sapiens, UniProt O60885)
Assay: Bromodomain binding affinity (tryptophan fluorescence binding assay)
Conditions: Table 5; read-out: BrD4-1
Description: Monitoring change of intrinsic tryptophan fluorescence of a protein induced by ligand binding can be used to determine ligand binding affinity (KD). […] Tryptophan fluorescence of the protein was measured (with excitation set at 280 nm, emission at 350 nm) on a Tecan Safire2 reader. Inner filter correction was introduced to take into account the possible intrinsic fluorescence of the compound. […] KD was calculated based on the curve fitting.
pKd: −log10 of the molar value.

[
  {
    "compound": "O=C(O)c1cc(/N=N/c2ccc(S(=O)(=O)Nc3ccccn3)cc2)ccc1O [Sulfasalazine (MS0123028), Sulfasalazine, reference compound]",
    "pKd": 4.27
  },
  {
    "compound": "Cc1cc(NNc2ccc(S(=O)(=O)NCc3ccc(C(F)(F)F)cc3)cc2)c(N)cc1O [MS0129433]",
    "pKd": 5.35
  }
]

* * *

Reported values of pKd for individual entries
target: PCAF (Homo sapiens); experiment: Bromodomain binding affinity (tryptophan fluorescence binding assay); details: Table 5; read-out: PCAF
pKd: −log10 of the molar value.

[
  {
    "compound": "Cc1cc(/N=N/c2ccc(S(=O)(=O)Nc3ccccn3)cc2)c(N)cc1O",
    "result_qualifier": "=",
    "pKd": 5.07
  },
  {
    "compound": "O=C(O)c1cc(/N=N/c2ccc(S(=O)(=O)Nc3ccccn3)cc2)ccc1O [Sulfasalazine (MS0123028), Sulfasalazine, reference compound]",
    "result_qualifier": "=",
    "pKd": 4.06
  },
  {
    "compound": "Cc1cc(NNc2ccc(S(=O)(=O)NCc3ccc(C(F)(F)F)cc3)cc2)c(N)cc1O",
    "result_qualifier": "<",
    "pKd": 4.00
  }
]

* * *

target: BRD4-2 (Homo sapiens); assay: Bromodomain binding affinity (tryptophan fluorescence binding assay); conditions: Table 4; read-out: BrD4-2 (μM), bromodomain binding
molecules and their reported Kd
assay_metric: Kd (µM)

[
  {
    "molecule": "Cc1cc(/C=C/c2ccc(S(=O)(=O)Nc3ccccn3)cc2)cc(C)c1O",
    "assay_metric": "Kd",
    "result_qualifier": "<",
    "numeric_result": 1
  },
  {
    "molecule": "Cc1cc(/C=C/c2ccc(S(=O)(=O)Nc3ccccn3)cc2)c(N)cc1O",
    "assay_metric": "Kd",
    "result_qualifier": "<",
    "numeric_result": 1
  },
  {
    "molecule": "Cc1cc(/N=N/c2ccc(S(=O)(=O)Nc3ccccn3)cc2)cc(C)c1O",
    "assay_metric": "Kd",
    "result_qualifier": "=",
    "numeric_result": 2.4
  },
  {
    "molecule": "O=C(O)c1cc(/N=N/c2ccc(S(=O)(=O)Nc3ccccn3)cc2)ccc1O [Sulfasalazine (MS0123028), Sulfasalazine, reference compound]",
    "assay_metric": "Kd",
    "result_qualifier": "=",
    "numeric_result": 54
  }
]
